experiment: Partition between octanol and aqueous buffer (Log D7.4); type: physicochemical; conditions: pH 7.4
ENDPOINT NAME: logD
Give bare numbers.

### Prompt Which value of logD has been reported for CCCCCC(CC(=O)CCc1ccc(O)c(OC)c1)SCC(NC(=O)CCC(N)C(=O)O)C(=O)NCC(=O)O (stereo not shown) in the records?
### Response -1.75

----------
experiment: Incubation with mouse intestinal microsomes (HPLC); type: in vitro ADME; details: mouse, intestinal microsomes; incubation for 30 minutes; read-out: relative content retained of the input
ENDPOINT NAME: remaining at 0.5 h (%)
Answers are plain numbers, in %.

### Prompt Which value of remaining at 0.5 h has been reported for CCCCCC(CC(=O)CCc1ccc(O)c(OC)c1)SCC(NC(=O)CCC(N)C(=O)O)C(=O)NCC(=O)O (stereo not shown) in the records?
### Response 86
